targetOrSystem: PPARγ-RXRα heterodimer (Homo sapiens)
Sequence (P37231 1-477 isoform P37231-2): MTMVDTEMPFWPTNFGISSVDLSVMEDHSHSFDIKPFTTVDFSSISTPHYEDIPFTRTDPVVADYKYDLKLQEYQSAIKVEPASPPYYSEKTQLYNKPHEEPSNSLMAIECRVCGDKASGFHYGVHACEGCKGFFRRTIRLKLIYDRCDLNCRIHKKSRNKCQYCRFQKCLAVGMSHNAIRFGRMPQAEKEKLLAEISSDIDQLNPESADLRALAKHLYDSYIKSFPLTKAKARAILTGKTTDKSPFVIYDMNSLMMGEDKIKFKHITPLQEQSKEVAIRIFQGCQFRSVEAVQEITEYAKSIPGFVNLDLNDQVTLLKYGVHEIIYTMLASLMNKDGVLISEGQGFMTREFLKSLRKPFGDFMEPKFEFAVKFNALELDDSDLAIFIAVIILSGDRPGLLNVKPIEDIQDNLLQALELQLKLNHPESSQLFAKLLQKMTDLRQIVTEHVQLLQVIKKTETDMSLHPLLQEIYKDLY
Sequence (P19793 1-462 partner): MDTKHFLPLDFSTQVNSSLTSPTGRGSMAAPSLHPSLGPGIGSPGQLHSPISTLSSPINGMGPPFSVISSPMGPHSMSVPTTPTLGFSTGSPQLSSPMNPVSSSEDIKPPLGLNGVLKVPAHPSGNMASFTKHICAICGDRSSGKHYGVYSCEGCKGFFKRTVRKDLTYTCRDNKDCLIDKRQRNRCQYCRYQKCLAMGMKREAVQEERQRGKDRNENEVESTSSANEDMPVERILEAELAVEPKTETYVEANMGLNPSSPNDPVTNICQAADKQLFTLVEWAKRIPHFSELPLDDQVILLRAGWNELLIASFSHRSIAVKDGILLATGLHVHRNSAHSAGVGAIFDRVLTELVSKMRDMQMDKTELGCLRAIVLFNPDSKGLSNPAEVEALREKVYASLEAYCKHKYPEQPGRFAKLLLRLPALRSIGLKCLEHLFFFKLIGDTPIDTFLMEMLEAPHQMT
measurementNotes: PPARγ-RXRα heterodimer ligand activity (luciferase reporter, PPARγ:RXRα:4ERPP/CHO-K1 cells)
conditionSummary: concentration for 50% of maximum fold induction of luciferase, 48 hrs
quantityKind: pEC50
Reminder that pEC50 means the negative base-10 logarithm of the concentration expressed in mol/L.

q: Could you tell me which pEC50 is on file for Cc1oc(-c2ccccc2)nc1COc1ccc(Sc2nc(-c3ccccc3)c(CCC(=O)O)o2)cc1 ?
a: 8.00

q: Could you tell me which pEC50 is on file for Cc1oc(-c2ccccc2)nc1COc1ccc(CCc2oc(-c3ccccc3)nc2CC(=O)O)cc1 ?
a: 8.16

q: Could you tell me which pEC50 is on file for Cc1oc(-c2ccccc2)nc1COc1ccc(Cc2nc(CCC(=O)O)c(-c3ccccc3)s2)cc1 ?
a: 7.80

q: Could you tell me which pEC50 is on file for Cc1oc(-c2ccccc2)nc1COc1ccc(Cc2nc(-c3ccccc3)c(CCC(=O)O)[nH]2)cc1 ?
a: 7.80
